Overview of reported PBM binding z-score across a group of sequences:
Test system: PPARg:RXRa (NR concentration 180 nM, RXRa partner concentration 90 nM)
Assay: PBM binding z-score (relative to random genomic background probes); higher = stronger binding; sequences stand for … in GC…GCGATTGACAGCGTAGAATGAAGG
Measured metric: PBM binding z-score

[[record]]
residues = "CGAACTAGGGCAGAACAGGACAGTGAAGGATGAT"
target_of_assay = "PPARg:RXRa (NR concentration 180 nM, RXRa partner concentration 90 nM)"
result = 2.24

[[record]]
residues = "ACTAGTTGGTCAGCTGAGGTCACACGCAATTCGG"
target_of_assay = "PPARg:RXRa (NR concentration 180 nM, RXRa partner concentration 90 nM)"
result = 1.57

[[record]]
residues = "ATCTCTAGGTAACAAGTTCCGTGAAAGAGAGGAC"
target_of_assay = "PPARg:RXRa (NR concentration 180 nM, RXRa partner concentration 90 nM)"
result = 0.903

[[record]]
residues = "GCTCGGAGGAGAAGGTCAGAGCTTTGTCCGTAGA"
target_of_assay = "PPARg:RXRa (NR concentration 180 nM, RXRa partner concentration 90 nM)"
result = -0.0558

[[record]]
residues = "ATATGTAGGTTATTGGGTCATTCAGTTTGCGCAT"
target_of_assay = "PPARg:RXRa (NR concentration 180 nM, RXRa partner concentration 90 nM)"
result = 8.04

[[record]]
residues = "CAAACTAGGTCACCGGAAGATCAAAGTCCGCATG"
target_of_assay = "PPARg:RXRa (NR concentration 180 nM, RXRa partner concentration 90 nM)"
result = 9.41

[[record]]
residues = "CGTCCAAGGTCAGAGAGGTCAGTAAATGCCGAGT"
target_of_assay = "PPARg:RXRa (NR concentration 180 nM, RXRa partner concentration 90 nM)"
result = 3.48

[[record]]
residues = "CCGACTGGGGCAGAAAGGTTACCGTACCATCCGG"
target_of_assay = "PPARg:RXRa (NR concentration 180 nM, RXRa partner concentration 90 nM)"
result = 1.54

[[record]]
residues = "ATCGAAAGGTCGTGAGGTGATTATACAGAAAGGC"
target_of_assay = "PPARg:RXRa (NR concentration 180 nM, RXRa partner concentration 90 nM)"
result = 4.09

[[record]]
residues = "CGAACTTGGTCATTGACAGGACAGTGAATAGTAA"
target_of_assay = "PPARg:RXRa (NR concentration 180 nM, RXRa partner concentration 90 nM)"
result = 0.262

[[record]]
residues = "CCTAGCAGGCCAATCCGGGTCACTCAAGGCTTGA"
target_of_assay = "PPARg:RXRa (NR concentration 180 nM, RXRa partner concentration 90 nM)"
result = 0.787

[[record]]
residues = "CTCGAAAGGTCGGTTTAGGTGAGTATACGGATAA"
target_of_assay = "PPARg:RXRa (NR concentration 180 nM, RXRa partner concentration 90 nM)"
result = 0.282

[[record]]
residues = "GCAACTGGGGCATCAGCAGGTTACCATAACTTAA"
target_of_assay = "PPARg:RXRa (NR concentration 180 nM, RXRa partner concentration 90 nM)"
result = 2.26

[[record]]
residues = "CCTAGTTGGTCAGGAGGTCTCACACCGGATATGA"
target_of_assay = "PPARg:RXRa (NR concentration 180 nM, RXRa partner concentration 90 nM)"
result = 0.469

[[record]]
residues = "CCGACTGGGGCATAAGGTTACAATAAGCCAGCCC"
target_of_assay = "PPARg:RXRa (NR concentration 180 nM, RXRa partner concentration 90 nM)"
result = 2.58

[[record]]
residues = "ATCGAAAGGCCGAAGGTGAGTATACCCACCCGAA"
target_of_assay = "PPARg:RXRa (NR concentration 180 nM, RXRa partner concentration 90 nM)"
result = 1.25

[[record]]
residues = "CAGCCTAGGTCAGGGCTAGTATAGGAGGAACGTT"
target_of_assay = "PPARg:RXRa (NR concentration 180 nM, RXRa partner concentration 90 nM)"
result = 0.77

[[record]]
residues = "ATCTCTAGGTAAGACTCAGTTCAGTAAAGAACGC"
target_of_assay = "PPARg:RXRa (NR concentration 180 nM, RXRa partner concentration 90 nM)"
result = 0.102

[[record]]
residues = "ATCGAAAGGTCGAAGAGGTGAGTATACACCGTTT"
target_of_assay = "PPARg:RXRa (NR concentration 180 nM, RXRa partner concentration 90 nM)"
result = 2.38

[[record]]
residues = "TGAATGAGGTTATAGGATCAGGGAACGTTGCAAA"
target_of_assay = "PPARg:RXRa (NR concentration 180 nM, RXRa partner concentration 90 nM)"
result = 2.06

[[record]]
residues = "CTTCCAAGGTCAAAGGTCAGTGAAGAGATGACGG"
target_of_assay = "PPARg:RXRa (NR concentration 180 nM, RXRa partner concentration 90 nM)"
result = 11.1

[[record]]
residues = "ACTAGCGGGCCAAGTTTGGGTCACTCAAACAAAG"
target_of_assay = "PPARg:RXRa (NR concentration 180 nM, RXRa partner concentration 90 nM)"
result = -0.111

[[record]]
residues = "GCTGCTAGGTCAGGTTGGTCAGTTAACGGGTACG"
target_of_assay = "PPARg:RXRa (NR concentration 180 nM, RXRa partner concentration 90 nM)"
result = 0.425

[[record]]
residues = "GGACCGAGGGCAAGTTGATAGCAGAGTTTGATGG"
target_of_assay = "PPARg:RXRa (NR concentration 180 nM, RXRa partner concentration 90 nM)"
result = 0.401

[[record]]
residues = "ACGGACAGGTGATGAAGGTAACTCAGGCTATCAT"
target_of_assay = "PPARg:RXRa (NR concentration 180 nM, RXRa partner concentration 90 nM)"
result = 0.712

[[record]]
residues = "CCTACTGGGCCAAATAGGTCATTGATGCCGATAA"
target_of_assay = "PPARg:RXRa (NR concentration 180 nM, RXRa partner concentration 90 nM)"
result = 2.07

[[record]]
residues = "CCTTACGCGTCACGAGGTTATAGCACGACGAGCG"
target_of_assay = "PPARg:RXRa (NR concentration 180 nM, RXRa partner concentration 90 nM)"
result = 1.08

[[record]]
residues = "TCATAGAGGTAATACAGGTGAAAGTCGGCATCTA"
target_of_assay = "PPARg:RXRa (NR concentration 180 nM, RXRa partner concentration 90 nM)"
result = 0.997

[[record]]
residues = "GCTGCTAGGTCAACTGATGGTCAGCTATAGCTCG"
target_of_assay = "PPARg:RXRa (NR concentration 180 nM, RXRa partner concentration 90 nM)"
result = 2.88

[[record]]
residues = "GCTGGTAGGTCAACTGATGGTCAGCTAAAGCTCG"
target_of_assay = "PPARg:RXRa (NR concentration 180 nM, RXRa partner concentration 90 nM)"
result = 4.59

[[record]]
residues = "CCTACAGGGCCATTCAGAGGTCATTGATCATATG"
target_of_assay = "PPARg:RXRa (NR concentration 180 nM, RXRa partner concentration 90 nM)"
result = 0.853

[[record]]
residues = "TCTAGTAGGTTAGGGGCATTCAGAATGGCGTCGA"
target_of_assay = "PPARg:RXRa (NR concentration 180 nM, RXRa partner concentration 90 nM)"
result = 2

[[record]]
residues = "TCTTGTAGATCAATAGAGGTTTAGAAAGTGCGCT"
target_of_assay = "PPARg:RXRa (NR concentration 180 nM, RXRa partner concentration 90 nM)"
result = -0.452

[[record]]
residues = "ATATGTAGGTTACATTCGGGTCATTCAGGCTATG"
target_of_assay = "PPARg:RXRa (NR concentration 180 nM, RXRa partner concentration 90 nM)"
result = 5.53

[[record]]
residues = "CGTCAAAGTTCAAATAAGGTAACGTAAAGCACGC"
target_of_assay = "PPARg:RXRa (NR concentration 180 nM, RXRa partner concentration 90 nM)"
result = 4.86

[[record]]
residues = "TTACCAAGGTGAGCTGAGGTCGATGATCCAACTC"
target_of_assay = "PPARg:RXRa (NR concentration 180 nM, RXRa partner concentration 90 nM)"
result = 0.288

[[record]]
residues = "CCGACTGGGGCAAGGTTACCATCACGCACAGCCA"
target_of_assay = "PPARg:RXRa (NR concentration 180 nM, RXRa partner concentration 90 nM)"
result = 2.72

[[record]]
residues = "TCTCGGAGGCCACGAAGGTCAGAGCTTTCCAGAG"
target_of_assay = "PPARg:RXRa (NR concentration 180 nM, RXRa partner concentration 90 nM)"
result = 0.256

[[record]]
residues = "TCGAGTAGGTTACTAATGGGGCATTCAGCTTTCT"
target_of_assay = "PPARg:RXRa (NR concentration 180 nM, RXRa partner concentration 90 nM)"
result = -0.149

[[record]]
residues = "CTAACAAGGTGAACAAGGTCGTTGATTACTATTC"
target_of_assay = "PPARg:RXRa (NR concentration 180 nM, RXRa partner concentration 90 nM)"
result = 1.75

[[record]]
residues = "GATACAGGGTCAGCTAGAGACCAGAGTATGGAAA"
target_of_assay = "PPARg:RXRa (NR concentration 180 nM, RXRa partner concentration 90 nM)"
result = 3.4

[[record]]
residues = "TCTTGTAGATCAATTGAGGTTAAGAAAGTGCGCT"
target_of_assay = "PPARg:RXRa (NR concentration 180 nM, RXRa partner concentration 90 nM)"
result = -0.433

[[record]]
residues = "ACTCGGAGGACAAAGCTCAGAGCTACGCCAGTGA"
target_of_assay = "PPARg:RXRa (NR concentration 180 nM, RXRa partner concentration 90 nM)"
result = 0.401

[[record]]
residues = "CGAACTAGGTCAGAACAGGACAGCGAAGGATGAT"
target_of_assay = "PPARg:RXRa (NR concentration 180 nM, RXRa partner concentration 90 nM)"
result = 5.21

[[record]]
residues = "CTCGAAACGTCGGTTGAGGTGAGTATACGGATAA"
target_of_assay = "PPARg:RXRa (NR concentration 180 nM, RXRa partner concentration 90 nM)"
result = 0.00135

[[record]]
residues = "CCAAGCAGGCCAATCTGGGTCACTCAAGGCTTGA"
target_of_assay = "PPARg:RXRa (NR concentration 180 nM, RXRa partner concentration 90 nM)"
result = 2.46

[[record]]
residues = "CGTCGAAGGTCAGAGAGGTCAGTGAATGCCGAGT"
target_of_assay = "PPARg:RXRa (NR concentration 180 nM, RXRa partner concentration 90 nM)"
result = 3.57

[[record]]
residues = "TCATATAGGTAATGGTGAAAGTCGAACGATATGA"
target_of_assay = "PPARg:RXRa (NR concentration 180 nM, RXRa partner concentration 90 nM)"
result = 1.43

[[record]]
residues = "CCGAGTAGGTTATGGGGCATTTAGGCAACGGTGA"
target_of_assay = "PPARg:RXRa (NR concentration 180 nM, RXRa partner concentration 90 nM)"
result = 3.51

[[record]]
residues = "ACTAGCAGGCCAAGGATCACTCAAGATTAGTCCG"
target_of_assay = "PPARg:RXRa (NR concentration 180 nM, RXRa partner concentration 90 nM)"
result = 2.12

[[record]]
residues = "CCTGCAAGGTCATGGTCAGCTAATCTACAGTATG"
target_of_assay = "PPARg:RXRa (NR concentration 180 nM, RXRa partner concentration 90 nM)"
result = 4.66

